# target_or_system: human Edg-2 receptor (Homo sapiens)
# Sequence (Q92633 whole entry): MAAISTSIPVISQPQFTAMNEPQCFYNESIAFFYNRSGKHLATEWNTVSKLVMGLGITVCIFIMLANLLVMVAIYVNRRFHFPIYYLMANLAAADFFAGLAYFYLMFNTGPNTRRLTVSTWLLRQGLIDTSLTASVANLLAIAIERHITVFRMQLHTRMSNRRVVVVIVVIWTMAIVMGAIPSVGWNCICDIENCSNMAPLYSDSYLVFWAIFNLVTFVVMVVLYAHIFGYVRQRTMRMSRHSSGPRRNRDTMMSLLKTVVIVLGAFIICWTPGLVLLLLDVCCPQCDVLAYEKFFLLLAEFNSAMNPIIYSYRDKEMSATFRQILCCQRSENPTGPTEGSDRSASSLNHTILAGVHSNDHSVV
# method_description: Determination of Edg-2 receptor inhibition by FLIPR measurements (LPA-mediated calcium liberation)
# Format: cell-based
# conditions_used: CHO cells overexpressing human Edg-2 receptor, LPA 100 nM, fluo-4 calcium fluorescence; read-out: Inhibitory concentrations IC50 for inhibition of the Edg-2 receptor
pIC50: −log10 of the molar value.
metric: pIC50

Use the examples below as a reference point.
compound	pIC50
Cc1cccc(CCOc2cc(C(=O)N[C@]3(C(=O)O)CC[C@H](C)CC3)ccc2OCCO)c1	> 7.00
CC[C@H]1CC[C@](NC(=O)c2cnc(OC)c(OCCc3ccccc3)c2)(C(=O)O)CC1	> 7.00
COc1ccc(C(=O)NC2(C(=O)O)CCCC(C)C2)cc1OCCc1cccc(C)c1 (stereo not drawn) [Example 367]	6.00 to 7.00
COc1ncc(C(=O)N[C@]2(C(=O)O)CC[C@@H](C)CC2)cc1-c1cc(F)c(F)c(F)c1	> 7.00
COc1ncc(C(=O)N[C@]2(C(=O)O)CC[C@H](C)CC2)cc1OCCc1cccc(Cl)c1	> 7.00

Ask: State pIC50 on human Edg-2 receptor (Homo sapiens). Entry: COc1ncc(C(=O)N[C@]2(C(=O)O)CC[C@H](C(F)(F)F)CC2)cc1-c1cccc(C(F)(F)F)c1
Result: > 7.00

Ask: State pIC50 on human Edg-2 receptor (Homo sapiens). Entry: CC[C@H]1CC[C@](NC(=O)c2ccc(CCCO)c(-c3cccc(C(F)(F)F)c3)c2)(C(=O)O)CC1
Result: > 7.00

Ask: State pIC50 on human Edg-2 receptor (Homo sapiens). Entry: COc1ncc(C(=O)N[C@]2(C(=O)O)CC[C@H](C)CC2)cc1OCCc1cc(C)ccc1C
Result: 4.52 to 6.00

Ask: State pIC50 on human Edg-2 receptor (Homo sapiens). Entry: CC[C@H]1CC[C@@](NC(=O)c2cnc(OC)c(-c3cc(F)c(F)c(F)c3)c2)(C(=O)O)CC1
Result: 6.00 to 7.00

Ask: State pIC50 on human Edg-2 receptor (Homo sapiens). Entry: COc1ccc(C(=O)NC2(C(=O)O)CC2)cc1OCCc1cccc(C)c1
Result: 6.00 to 7.00

Origin of the recorded values: patent US9018383B2
